Taken from patent US10189870B2.

procedureText: Solubility in water, filtrate content measured by HPLC
Format: physicochemical
settings: water, 25 °C, water, thermodynamic from solid, at room temperature; read-out: water solubility
Protocol: High Performance Liquid Chromatogram (HPLC) analysis data are collected from Agilent 1260 and the chemical workstation is B.04. […] In 100 mL of water was added 20.0 mg of Form I prepared in preparation example 1 or 20 mg of Form II prepared in example 1, and stirred for 10 hours at 25° C., filtered, the content of the filtrate was directly measured by HPLC.
propertyMeasured: solubility at 10 h (µg/mL)
Give bare numbers, in µg/mL.

Request: Give the measured solubility at 10 h for Cn1nnc(-c2ccc(-c3ccc(N4C[C@H](COP(=O)(O)O)OC4=O)cc3F)cn2)n1 [Form II of TR-701FA]
Response: 168

* * *

procedureText: Solubility in water, filtrate content measured by HPLC
Assay type: physicochemical
settings: water, 25 °C, water, thermodynamic from solid, water, stirred 10 hours at 25° C. (room temperature), filtrate by HPLC; read-out: solubility in water
propertyMeasured: solubility at 10 h (mg/mL)
Give bare numbers, in mg/mL.

Request: Give the measured solubility at 10 h for Cn1nnc(-c2ccc(-c3ccc(N4C[C@H](COP(=O)(O)O)OC4=O)cc3F)cn2)n1 [Form I of TR-701FA]
Response: 0.118
